For each of the molecules below, state its % Inhibition.
System: P. falciparum stage V gametocytes
Design: BacTiter-Glo ATP luminescence viability of purified stage V gametocytes in 384-well plates, per cent inhibition versus DMSO
test.context: 48 h, 5 µM; inhibitor
Hit rate of the full screen: of about 13,000 compounds, about 3,200 (25%) showed an effect of 50% or more. Some of the results follow.
Reply numerically in %, unit not repeated.

-- ask Dear colleague, please send me the reported % Inhibition for CO/C(=C\C=C\c1cc2cc(Cl)c(Cl)cc2[nH]1)C(=O)NCCCN1CCN(c2cccc(OCC(=O)Nc3ccccc3)c2)CC1 [TCMDC-139822] when you can.
-- reply -45.25

-- ask Specify % Inhibition for COc1ccc(CN=C(N)Nc2nc(-c3ccc(OCCCn4ccnc4)cc3)cs2)cc1 [TCMDC-138934] and stop.
-- reply 9.829

-- ask Give the reported % Inhibition for this molecule. Nc1ncc(-c2ccc3ncccc3c2)c(N)n1 [TCMDC-133421]
-- reply 0.5405

-- ask Tell me its % Inhibition given O=C(Nc1ccc(Cl)cc1)c1ccc(CN2CCCN(Cc3cccc(Cl)c3)CC2)cc1 [TCMDC-136405] as the entry.
-- reply 70.05

-- ask Annotate the molecule CCOC(=O)C(CO)NC(=O)c1ccc([N+](=O)[O-])o1 (centres unmarked) [TCMDC-131608] with its measured % Inhibition.
-- reply 22.85

-- ask Please supply the value of reported % Inhibition for the item CC(C)(C)c1ccc(NC(=O)c2ccc(CN3CCCN(Cc4cccc(Cl)c4)CC3)cc2)cc1 [TCMDC-136432]
-- reply -29.42

-- ask Name the recorded % Inhibition of the molecule listed here: COc1ccc(Cl)cc1N1CCN(CCCNC(=O)c2ccc(-c3nc4ccncc4[nH]3)c(Br)c2)CC1 [TCMDC-140145]
-- reply -23.34

-- ask Read the entry CCCCN=C(N)Nc1ccc(OCCCOc2ccc(NC(N)=NCCCC)cc2)cc1 [TCMDC-137616] and write its reported % Inhibition.
-- reply 55.77

-- ask Complete the entry with % Inhibition for O=C1C2=C(Nc3ccccc3SC2c2ccccc2)c2ccccc21 (centres unmarked) [TCMDC-123496]
-- reply 22.47

-- ask Tell me % Inhibition reported for Cc1ccc2nc(C)cc(NC(=O)Nc3ccc(N(C)C)cc3)c2c1 [TCMDC-140108]
-- reply -84.19

-- ask Consider the molecule N#Cc1cccc(CN2CCCN(Cc3cccc(C(=O)Nc4ccc(Cl)cc4)c3)CC2)c1 [TCMDC-135962] . State its measured % Inhibition.
-- reply -1.409

-- ask Find the measured % Inhibition of CCCCCCN=C(N)c1ccc2nc(-c3ccc(O)cc3)[nH]c2c1 [TCMDC-137218] and report it.
-- reply 15.89

-- ask Tell me its % Inhibition given COc1ccccc1N1CCN(CCCCNC(=O)c2ccc(NC(=O)c3ccc(C(F)(F)F)cc3)cc2)CC1 [TCMDC-138110] as the entry.
-- reply -20.18

-- ask Give the reported value of % Inhibition for this record: CC(C)(C)c1ccc(NC(=O)c2ccc(CN3CCCN(Cc4cccc(C#N)c4)CC3)cc2)cc1 [TCMDC-136430]
-- reply 8.252

-- ask Give recorded % Inhibition. CCCCCN=C(N)c1ccc(OCCCCCOc2ccc(C(N)=NCCCCC)cc2)cc1 [TCMDC-137620]
-- reply 63.24

-- ask Supply measured % Inhibition of CCc1ccc(NC(=O)c2ccc(CN3CCCN(Cc4cccc(Cl)c4)CC3)cc2)cc1 [TCMDC-136438] in your reply.
-- reply -4.503

-- ask Please give measured % Inhibition of the following entry: Nc1ccncc1C(=O)NCCCCN1CCN(c2nsc3ccccc23)CC1 [TCMDC-137310]
-- reply 70.91

###

System: P. falciparum stage V gametocytes
Set-up: BacTiter-Glo ATP luminescence viability of purified stage V gametocytes in 384-well plates, per cent inhibition versus DMSO
test.context: 48 h, 5 µM; inhibitor
About 3,200 (25%) of roughly 13,000 compounds showed an effect of 50% or more. Some of the results follow.
observation.type: % Inhibition (%)
Number in %, nothing else.

-- ask Lab note: P. falciparum stage V gametocytes assay, enter % Inhibition for `O=c1cc(NCC2(CNCc3cn(Cc4ccccc4)c4ccccc34)CCCCC2)[nH]c2ccccc12` here
-- reply -59.9

-- ask Look up and report % Inhibition, with P. falciparum stage V gametocytes as system, for `COc1ccc(-c2csc3nc(C)nc(Cl)c23)cc1OC`
-- reply -37.7

-- ask Give % Inhibition only, for CC(C)(C)SC1SC(SC(C)(C)C)C(OC(=O)c2ccccc2)C(OC(=O)c2ccccc2)C1OC(=O)c1ccccc1 (stereo not shown) , using P. falciparum stage V gametocytes data.
-- reply -26.61

-- ask Fill in: % Inhibition on P. falciparum stage V gametocytes, entry CN1CCCC(CN2CCN(Cc3ccc(-c4cccc(-c5nc6ccc(F)cc6[nH]5)c4)cc3)CC2)C1 (stereo not shown)
-- reply 67.8

-- ask Quote P. falciparum stage V gametocytes % Inhibition for entry `Cc1onc(-c2c(Cl)cccc2Cl)c1C(=O)N1CCc2cc3nccc(N4CCN5CCC[C@H]5C4)c3cc21` .
-- reply 3.329

-- ask Look up P. falciparum stage V gametocytes data: % Inhibition of `COc1cc(C(F)(F)F)cc2[nH]c(CNCCCNc3nc4ccccc4[nH]3)cc12` , then report it.
-- reply 19.83

-- ask Recall the reported % Inhibition of `CCOc1cc(C(=O)Nc2cccnc2)ccc1-c1nc2cc(Cl)c(Cl)cc2[nH]1` on P. falciparum stage V gametocytes and write it down.
-- reply 1.839

-- ask Give % Inhibition for O=C(OCc1ccccc1)N1CCc2c([nH]c3ccccc23)C1CCC(F)(F)F (stereo not shown) tested on P. falciparum stage V gametocytes.
-- reply -59.21

-- ask Enter recorded % Inhibition with P. falciparum stage V gametocytes for O=C(NCCCCNCC(Cc1cccc(O)c1)c1ccccc1)c1ccc(NC(=O)c2ccc(Cl)cc2)cc1 (stereo not shown) here.
-- reply -50.17

-- ask Please look at `N#CCCN1CCN(Cc2cccc(-c3ccc(-c4nc5ccc(C(F)(F)F)cc5[nH]4)cc3)c2)CC1` and tell me its recorded % Inhibition on P. falciparum stage V gametocytes.
-- reply -10.1

-- ask Tell me % Inhibition of `Cc1cccc2nc(-c3ccc(-c4ccc(NC(=O)Nc5ccc(F)c(F)c5F)cc4)s3)[nH]c12` when tested on P. falciparum stage V gametocytes.
-- reply -13.04

-- ask Give % Inhibition for OC1CCCN(Cc2cccc(-c3ccc(-c4nc5ccc(C(F)(F)F)cc5[nH]4)cc3)c2)C1 (stereo not shown) tested on P. falciparum stage V gametocytes.
-- reply -59.43

-- ask Param request: % Inhibition | system P. falciparum stage V gametocytes | item `Cc1cc(C)c(C)c(OCCCON2C(N)=NC(N)=NC2(C)C)c1C`
-- reply -4.975

-- ask Provide the reported % Inhibition (system: P. falciparum stage V gametocytes) for `N#CCCN1CCN(Cc2ccc(-c3cccc(-c4nc5ccc(F)cc5[nH]4)c3)cc2)CC1`
-- reply 7.403

-- ask Please indicate recorded % Inhibition of CCCCCN1CCCC(CNS(=O)(=O)c2cccc(C(=O)Nc3ccc(C(F)(F)F)cc3)c2)C1 (stereo not shown) measured with P. falciparum stage V gametocytes.
-- reply -63.4

-- ask Print P. falciparum stage V gametocytes % Inhibition for CCCC(CNCc1ccccc1)CNc1cc(=O)c2ccccc2[nH]1 (stereo not shown) .
-- reply 43.59

###

Give measured % Inhibition for each item. Keep answers brief.
Test system: P. falciparum stage V gametocytes
Design: BacTiter-Glo ATP luminescence viability of purified stage V gametocytes in 384-well plates, per cent inhibition versus DMSO
test.context: 48 h, 5 µM; inhibitor
The campaign covered roughly 13,000 compounds. About 3,200 (25%) showed an effect of 50% or more. Some of the results follow.
Use % as the unit, but write only the number.

-- ask Give % Inhibition for the following molecule: `Cc1cc(C2CCN(CCCCNC(=O)c3ccc(-c4ccc(C#N)cc4)cc3)CC2)c(C)cc1OCCO`
-- reply -59.1

-- ask Identify the reported % Inhibition for the following entry. CNC(=O)C1Cc2c([nH]c3ccc(Cl)cc23)C2(CCN(CCc3ccccc3)CC2)N1 (stereo not shown)
-- reply -33.98

-- ask For the molecule COc1ccc(CC(=O)NC(CCN2CCC3(CCc4ccccc43)CC2)c2ccc(Cl)c(Cl)c2)cc1 (stereo not shown) , give its measured % Inhibition value.
-- reply -72.25

-- ask Quote % Inhibition reported for `CC(=O)c1cccc(S(=O)(=O)NCCCNc2nc3cc(C)cc(C)c3cc2C#N)c1` please.
-- reply 8.065

-- ask Item `O=C(/C=C/c1ccc(Cl)c(Cl)c1)NCCCCCN1CCC(NC(=O)c2cc(Cl)ccc2F)CC1` : provide % Inhibition
-- reply -52.06

-- ask Please indicate % Inhibition recorded for `Cn1nccc1C(=O)NCCNCc1ccc(-c2ccc(-c3nc4cc(C(F)(F)F)ccc4[nH]3)s2)cc1.O=C(O)C(F)(F)F`
-- reply -29.18

-- ask Check the records and state % Inhibition for `CCOc1cc(CC)ccc1C1CCN(CCN2CCC(NC(=O)c3ccc(-c4ccc(C(C)=O)cc4)cc3)CC2)CC1`
-- reply -11.21
